system: SF-539 CNS; assay: NCI tumour cell line growth inhibition, 48 h
Kindly supply the reported TGI values for the records listed here.

Please review the entries below; each comes with its answer.
CC(C)Cn1cnnc1NS(=O)(=O)c1cc(C(=O)NN)c(Cl)cc1S : > 10 µM
CCOC(=O)c1c(C)n(-c2ccc(C)cc2)c2c1cc(O)c1[nH]c3c(c12)CCCC3 : 30.2 µM

Kindly consider the entry below.
Q. Requested read-out: TGI. Entry: `N#Cc1c(-c2ccccc2)cc(Nc2ccc(F)cc2)n2c1nc1ccccc12`
A. > 22.7 µM

###

Kindly supply the reported TGI values for the records listed here.
test system: M19-MEL melanoma; experiment: NCI tumour cell line growth inhibition, 48 h

Please review the entries below; each comes with its answer.
O=[N+]([O-])c1ccc(N=Nc2c(O)[nH]c3ccc(Br)cc23)c([N+](=O)[O-])c1 : 9.91 µM
COc1ccccc1NS(=O)(=O)c1cc(C(C)(C)C)ccc1OCCOc1ccc(C(C)(C)C)cc1S(=O)(=O)Nc1ccccc1OC : > 100 µM
NC(N)=NCCCS(=O)(=O)Nc1ccc(Nc2c3ccccc3nc3cc([N+](=O)[O-])ccc23)cc1 : 24.1 µM

Kindly consider the entry below.
Q. Requested read-out: TGI. Entry: `COc1ccc(Br)c(CCCCC(=O)O)c1`
A. > 100 µM

The reported numbers originate from PubChem BioAssay (NCI).
